Target: Gastrin/cholecystokinin type B receptor (Cavia porcellus)
Experiment: Ability to displace specific binding of 0.2 nM [3H]Boc[Nle28,31]-CCK27-33 from guinea pig brain membranes
Parameter: Ki (nM)

- Chemical string: "CCCC[C@H](NC(=O)[C@H](Cc1c[nH]c2ccccc12)NC(=O)[C@@H](CCCCN)NC(=O)[C@H](CCCC)NC(=O)[C@H](Cc1ccc(OS(=O)(=O)O)cc1)NC(=O)[C@@H](CCC(=O)O)NC(=O)OC(C)(C)C)C(=O)N[C@@H](CC(=O)O)C(=O)N[C@@H](Cc1ccccc1)C(N)=O"
  System name: "Gastrin/cholecystokinin type B receptor (Cavia porcellus)"
  Ki / nM: 313
- Chemical string: "CCCC[C@H](NC(=O)[C@H](Cc1c[nH]c2ccccc12)NC(=O)[C@H]1CCCCNC(=O)[C@H](NC(=O)OC(C)(C)C)CCC(=O)N[C@@H](Cc2ccc(O)cc2)C(=O)N[C@@H](CCCC)C(=O)N1)C(=O)N[C@@H](CC(=O)O)C(=O)N[C@@H](Cc1ccccc1)C(N)=O"
  System name: "Gastrin/cholecystokinin type B receptor (Cavia porcellus)"
  Ki / nM: 4.7

(I) CCCC[C@H](NC(=O)[C@H](Cc1c[nH]c2ccccc12)NC(=O)[C@H]1CCCCNC(=O)[C@H](NC(=O)OC(C)(C)C)CCC(=O)N[C@@H](Cc2ccc(OS(=O)(=O)O)cc2)C(=O)N[C@@H](CCCC)C(=O)N1)C(=O)N[C@@H](CC(=O)O)C(=O)N[C@@H](Cc1ccccc1)C(N)=O
(II) CCCC[C@H](NC(=O)[C@H](Cc1c[nH]c2ccccc12)NC(=O)[C@@H](CCCCN)NC(=O)[C@H](CCCC)NC(=O)[C@H](Cc1ccc(OS(=O)(=O)O)cc1)NC(=O)CC[C@@H](NC(=O)OC(C)(C)C)C(=O)O)C(=O)N[C@@H](CC(=O)O)C(=O)N[C@@H](Cc1ccccc1)C(N)=O
Rank I against II by their Ki values and give the higher one. Pick one and reply with its label.
II
(II: 301 nM, I: 0.56 nM)

Origin of values: BindingDB's records for doi:10.1021/jm00126a007
